solubility in G1/S (log2) values for the sequences below.
Test system: HeLa Kyoto
Experiment summary: solubility in G1/S (NP-40 vs SDS abundance) (log2 ratio); higher = more soluble
Measurement context: cell cycle stage: G1/S

Input sequence	solubility in G1/S (log2)
MAASGEPQRQWQEEVAAVVVVGSCMTDLVSLTSRLPKTGETIHGHKFFIGFGGKGANQCVQAARLGAMTSMVCKVGKDSFGNDYIENLKQNDISTEFTYQTKDAATGTASIIVNNEGQNIIVIVAGANLLLNTEDLRAAANVISRAKVMVCQLEITPATSLEALTMARRSGVKTLFNPAPAIADLDPQFYTLSDVFCCNESEAEILTGLTVGSAADAGEAALVLLKRGCQVVIITLGAEGCVVLSQTEPEPKHIPTEKVKAVDTTGAGDSFVGALAFYLAYYPNLSLEDMLNRSNFIAAVSVQAAGTQSSYPYKKDLPLTLF [RBKS]	0.229
MESNKDEAERCISIALKAIQSNQPDRALRFLEKAQRLYPTPRVRALIESLNQKPQTAGDQPPPTDTTHATHRKAGGTDAPSANGEAGGESTKGYTAEQVAAVKRVKQCKDYYEILGVSRGASDEDLKKAYRRLALKFHPDKNHAPGATEAFKAIGTAYAVLSNPEKRKQYDQFGDDKSQAARHGHGHGDFHRGFEADISPEDLFNMFFGGGFPSSNVHVYSNGRMRYTYQQRQDRRDNQGDGGLGVFVQLMPILILILVSALSQLMVSSPPYSLSPRPSVGHIHRRVTDHLGVVYYVGDTFSEEYTGSSLKTVERNVEDDYIANLRNNCWKEKQQKEGLLYRARYFGDTDMYHRAQKMGTPSCSRLSEVQASLHG [DNAJB12]	0.104
MSPRRTLPRPLSLCLSLCLCLCLAAALGSAQSGSCRDKKNCKVVFSQQELRKRLTPLQYHVTQEKGTESAFEGEYTHHKDPGIYKCVVCGTPLFKSETKFDSGSGWPSFHDVINSEAITFTDDFSYGMHRVETSCSQCGAHLGHIFDDGPRPTGKRYCINSAALSFTPADSSGTAEGGSGVASPAQADKAEL [MSRB3]	0.116

---

solubility in G1/S (log2) values for the sequences below.
Test system: HeLa Kyoto
Experiment summary: solubility in G1/S (NP-40 vs SDS abundance) (log2 ratio); higher = more soluble
Measurement context: cell cycle stage: G1/S

Input sequence	Subject of test	solubility in G1/S (log2)
MAALKSWLSRSVTSFFRYRQCLCVPVVANFKKRCFSELIRPWHKTVTIGFGVTLCAVPIAQKSEPHSLSSEALMRRAVSLVTDSTSTFLSQTTYALIEAITEYTKAVYTLTSLYRQYTSLLGKMNSEEEDEVWQVIIGARAEMTSKHQEYLKLETTWMTAVGLSEMAAEAAYQTGADQASITARNHIQLVKLQVEEVHQLSRKAETKLAEAQIEELRQKTQEEGEERAESEQEAYLRED [DIABLO]	HeLa Kyoto	-0.173
MAENREPRGAVEAELDPVEYTLRKRLPSRLPRRPNDIYVNMKTDFKAQLARCQKLLDGGARGQNACSEIYIHGLGLAINRAINIALQLQAGSFGSLQVAANTSTVELVDELEPETDTREPLTRIRNNSAIHIRVFRVTPK [POP7]	HeLa Kyoto	0.19
MSGEPELIELRELAPAGRAGKGRTRLERANALRIARGTACNPTRQLVPGRGHRFQPAGPATHTWCDLCGDFIWGVVRKGLQCARLSADCKFTCHYRCRALVCLDCCGPRDLGWEPAVERDTNVDEPVEWETPDLSQAEIEQKIKEYNAQINSNLFMSLNKDGSYTGFIKVQLKLVRPVSVPSSKKPPSLQDARRGPGRGTSVRRRTSFYLPKDAVKHLHVLSRTRAREVIEALLRKFLVVDDPRKFALFERAERHGQVYLRKLLDDEQPLRLRLLAGPSDKALSFVLKENDSGEVNWDAFSMPELHNFLRILQREEEEHLRQILQKYSYCRQKIQEALHACPLG [RASSF1]	HeLa Kyoto	0.0141

---

System: HeLa Kyoto
Experiment summary: solubility change mitosis vs G1/S (difference of NP-40 vs SDS log2 ratios) (log2 ratio difference); higher = more soluble in mitosis
Y means recorded solubility change mitosis (log2) is 0.05 or above; N means it is below 0.05.

Input sequence	Group
MADTTPNGPQGAGAVQFMMTNKLDTAMWLSRLFTVYCSALFVLPLLGLHEAASFYQRALLANALTSALRLHQRLPHFQLSRAFLAQALLEDSCHYLLYSLIFVNSYPVTMSIFPVLLFSLLHAATYTKKVLDARGSNSLPLLRSVLDKLSANQQNILKFIACNEIFLMPATVFMLFSGQGSLLQPFIYYRFLTLRYSSRRNPYCRTLFNELRIVVEHIIMKPACPLFVRRLCLQSIAFISRLAPTVP [TMEM33]	N
MAGMVDFQDEEQVKSFLENMEVECNYHCYHEKDPDGCYRLVDYLEGIRKNFDEAAKVLKFNCEENQHSDSCYKLGAYYVTGKGGLTQDLKAAARCFLMACEKPGKKSIAACHNVGLLAHDGQVNEDGQPDLGKARDYYTRACDGGYTSSCFNLSAMFLQGAPGFPKDMDLACKYSMKACDLGHIWACANASRMYKLGDGVDKDEAKAEVLKNRAQQLHKEQQKGVQPLTFG [COA7]	N
MNRSHRHGAGSGCLGTMEVKSKFGAEFRRFSLERSKPGKFEEFYGLLQHVHKIPNVDVLVGYADIHGDLLPINNDDNYHKAVSTANPLLRIFIQKKEEADYSAFGTDTLIKKKNVLTNVLRPDNHRKKPHIVISMPQDFRPVSSIIDVDILPETHRRVRLYKYGTEKPLGFYIRDGSSVRVTPHGLEKVPGIFISRLVPGGLAQSTGLLAVNDEVLEVNGIEVSGKSLDQVTDMMIANSRNLIITVRPANQRNNVVRNSRTSGSSGQSTDNSLLGYPQQIEPSFEPEDEDSEEDDIIIEDNGVPQQIPKAVPNTESLESLTQIELSFESGQNGFIPSNEVSLAAIASSSNTEFETHAPDQKLLEEDGTIITL [PARD6B]	Y
MGLTVSALFSRIFGKKQMRILMVGLDAAGKTTILYKLKLGEIVTTIPTIGFNVETVEYKNICFTVWDVGGQDKIRPLWRHYFQNTQGLIFVVDSNDRERVQESADELQKMLQEDELRDAVLLVFANKQDMPNAMPVSELTDKLGLQHLRSRTWYVQATCATQGTGLYDGLDWLSHELSKR [ARF5]	N
MSATRAKKVKMATKSCPECDQQVPVACKSCPCGYIFISRKLLNAKHSEKSPPSTENKHEAKRRRTERVRREKINSTVNKDLENRKRSRSNSHSDHIRRGRGRPKSASAKKHEEEREKQEKEIDIYANLSDEKAFVFSVALAEINRKIINQRLIL [C16ORF87]	Y
MESGGRPSLCQFILLGTTSVVTAALYSVYRQKARVSQELKGAKKVHLGEDLKSILSEAPGKCVPYAVIEGAVRSVKETLNSQFVENCKGVIQRLTLQEHKMVWNRTTHLWNDCSKIIHQRTNTVPFDLVPHEDGVDVAVRVLKPLDSVDLGLETVYEKFHPSIQSFTDVIGHYISGERPKGIQETEEMLKVGATLTGVGELVLDNNSVRLQPPKQGMQYYLSSQDFDSLLQRQESSVRLWKVLALVFGFATCATLFFILRKQYLQRQERLRLKQMQEEFQEHEAQLLSRAKPEDRESLKSACVVCLSSFKSCVFLECGHVCSCTECYRALPEPKKCPICRQAITRVIPLYNS [MUL1]	N

---

System: HeLa Kyoto
Experiment summary: thermal stability score vs G1/S (z-score of summed log2 fold changes over temperatures); higher = more thermally stable than in G1/S
Measurement context: cell cycle stage: early G1 (4.5 h after nocodazole release)

Input sequence	thermal stability score
MTKAGSKGGNLRDKLDGNELDLSLSDLNEVPVKELAALPKATILDLSCNKLTTLPSDFCGLTHLVKLDLSKNKLQQLPADFGRLVNLQHLDLLNNKLVTLPVSFAQLKNLKWLDLKDNPLDPVLAKVAGDCLDEKQCKQCANKVLQHMKAVQADQERERQRRLEVEREAEKKREAKQRAKEAQERELRKREKAEEKERRRKEYDALKAAKREQEKKPKKEANQAPKSKSGSRPRKPPPRKHTRSWAVLKLLLLLLLFGVAGGLVACRVTELQQQPLCTSVNTIYDNAVQGLRRHEILQWVLQTDSQQ [LRRC59]	2.96
MAAAALGQIWARKLLSVPWLLCGPRRYASSSFKAADLQLEMTQKPHKKPGPGEPLVFGKTFTDHMLMVEWNDKGWGQPRIQPFQNLTLHPASSSLHYSLQLFEGMKAFKGKDQQVRLFRPWLNMDRMLRSAMRLCLPSFDKLELLECIRRLIEVDKDWVPDAAGTSLYVRPVLIGNEPSLGVSQPTRALLFVILCPVGAYFPGGSVTPVSLLADPAFIRAWVGGVGNYKLGGNYGPTVLVQQEALKRGCEQVLWLYGPDHQLTEVGTMNIFVYWTHEDGVLELVTPPLNGVILPGVVRQSLLDMAQTWGEFRVVERTITMKQLLRALEEGRVREVFGSGTACQVCPVHRILYKDRNLHIPTMENGPELILRFQKELKEIQYGIRAHEWMFPV [BCAT2]	-0.771
